Molecular target: LC3B (microtubule-associated protein 1A/1B light chain 3B) (human, UniProt Q9GZQ8 1-120)
Test: ITC; MicroCal VP-ITC, 30 °C; protein 10 μM in the cell, 10 μl injections of peptide (100-150 μM); 25 mM potassium phosphate, 150 mM NaCl, pH 7.0; no reducing agent; one site binding model; two independent measurements
Conditions: both partners purified
METRIC NAME: Kd (µM)
Number in µM, nothing else.

>>> value_reported("SGGDDDWTHVSS (also called L341V-mutant peptide; mutant AIM; source: synthetic peptide; bought: Genosphere Biotechnologies and Peptide Synthetics) [p62 L341V-AIM peptide]")
8.47

Proceeding to the next binder to report its Kd.
Lookup: Find the recorded Kd belonging to SGGDDDWTHLSS (also called p62 AIM; source: synthetic peptide; bought: Genosphere Biotechnologies and Peptide Synthetics) [p62 WT-AIM peptide] and report it.
Found: 3.83
